# Tested System: FGFR1 (h) (Homo sapiens, UniProt P11362)
# Sequence (P11362 22-822): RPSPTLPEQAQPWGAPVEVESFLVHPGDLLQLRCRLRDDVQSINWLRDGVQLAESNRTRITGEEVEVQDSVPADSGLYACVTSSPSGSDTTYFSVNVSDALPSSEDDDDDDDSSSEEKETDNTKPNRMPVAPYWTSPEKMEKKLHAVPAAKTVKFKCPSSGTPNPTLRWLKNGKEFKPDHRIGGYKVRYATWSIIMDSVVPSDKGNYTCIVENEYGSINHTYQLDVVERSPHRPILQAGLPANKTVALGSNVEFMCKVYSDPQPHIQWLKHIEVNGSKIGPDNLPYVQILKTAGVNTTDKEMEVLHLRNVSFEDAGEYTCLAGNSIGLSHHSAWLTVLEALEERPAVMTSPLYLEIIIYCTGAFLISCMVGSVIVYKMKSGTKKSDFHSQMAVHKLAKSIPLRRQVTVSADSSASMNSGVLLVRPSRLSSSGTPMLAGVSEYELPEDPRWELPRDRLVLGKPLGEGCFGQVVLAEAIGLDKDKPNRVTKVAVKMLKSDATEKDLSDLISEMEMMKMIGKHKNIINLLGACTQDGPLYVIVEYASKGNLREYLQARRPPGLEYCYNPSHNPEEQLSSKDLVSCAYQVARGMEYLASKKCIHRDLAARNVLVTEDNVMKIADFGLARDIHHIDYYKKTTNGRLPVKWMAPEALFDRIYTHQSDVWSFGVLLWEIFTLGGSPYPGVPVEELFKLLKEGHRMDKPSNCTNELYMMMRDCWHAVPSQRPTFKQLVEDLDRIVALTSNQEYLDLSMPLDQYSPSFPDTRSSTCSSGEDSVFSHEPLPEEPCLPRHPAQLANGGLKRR
# Assay Info: FGFR1 (enzymatic assay), TR-FRET
# Format: biochemical
# Recorded Conditions: average values if tested multiple times, read-out: FGFR 1 pIC50 (converted)
Structures can show the parent of a compound that is named as a salt.
Measured Metric: log10 IC50 (log10 of the value in nM)

{"Molecule": "COc1cc(OC)c(F)c(N(Cc2cn(S(=O)(=O)N(C)C)cn2)c2ccc3ncc(-c4cnn(C)c4)nc3n2)c1", "Measured Metric": "log10 IC50", "Result": 0.19}
{"Molecule": "CNCCN(c1ccc2ncc(-c3cn[nH]c3)nc2n1)c1c(F)c(OC)cc(OC)c1F", "Measured Metric": "log10 IC50", "Result": 0.27}
{"Molecule": "COc1cc(OC)c(F)c(/N=c2\\ccc3ncc(-c4cnn(C)c4)nc3n2CCCO)c1F (single isomer, unassigned)", "Measured Metric": "log10 IC50", "Result": -0.60}
{"Molecule": "COc1cc(OC)c(F)c(N(CCCO)c2ccc3ncc(-c4cnn(C)c4)nc3n2)c1F (single isomer, unassigned)", "Measured Metric": "log10 IC50", "Result": 1.00}
{"Molecule": "COc1cc(OC)cc(N(CCCO)c2ccc3ncc(-c4cnn(C)c4)nc3n2)c1", "Measured Metric": "log10 IC50", "Result": 0.30}
{"Molecule": "COc1cc(OC)c(F)c(N(c2ccc3ncc(-c4cnn(C)c4)nc3n2)C(CO)COC(C)C)c1 (single isomer, unassigned)", "Measured Metric": "log10 IC50", "Result": 2.48}
{"Molecule": "COc1cc(/N=c2\\ccc3ncc(-c4cnn(C)c4)nc3n2CC2CCC(=O)N2)c(F)c(OC)c1 (stereo not drawn) [Compound 45]", "Measured Metric": "log10 IC50", "Result": 0.17}
{"Molecule": "COc1cc(OC)c(F)c(N(Cc2nc[nH]c2C)c2ccc3ncc(-c4cnn(C)c4)nc3n2)c1", "Measured Metric": "log10 IC50", "Result": 0.06}
{"Molecule": "CNCCN(c1ccc2ncc(-c3cnn(C)c3)nc2n1)c1c(Cl)ccc(OC)c1Cl", "Measured Metric": "log10 IC50", "Result": 1.88}
{"Molecule": "COc1cc(OC)cc(N(CC(O)C(F)(F)F)c2ccc3ncc(-c4cnn(C)c4)nc3n2)c1 (single isomer, unassigned) [Compound 33]", "Measured Metric": "log10 IC50", "Result": -0.06}
{"Molecule": "COc1cc(OC)c(F)c(N(Cc2ncccn2)c2ccc3ncc(-c4cnn(C)c4)nc3n2)c1", "Measured Metric": "log10 IC50", "Result": 0.75}
{"Molecule": "CNCCN(c1ccc2ncc(-c3cnn(C)c3)nc2n1)c1c(F)c(OC)cc(OC)c1F", "Measured Metric": "log10 IC50", "Result": 0.13}
{"Molecule": "COc1cc(OC)c(F)c(N(Cc2ncc[nH]2)c2ccc3ncc(-c4cnn(C)c4)nc3n2)c1 [23-lactate salt]", "Measured Metric": "log10 IC50", "Result": -0.30}
{"Molecule": "COc1cc(OC)cc(N(Cc2ncc[nH]2)c2ccc3ncc(-c4cnn(C)c4)nc3n2)c1 (racemic) [24-DL-tartrate salt]", "Measured Metric": "log10 IC50", "Result": -0.45}
{"Molecule": "COc1cc(OC)c(F)c(N(Cc2nc[nH]n2)c2ccc3ncc(-c4cnn(C)c4)nc3n2)c1F", "Measured Metric": "log10 IC50", "Result": 0.01}
